Values from the Immune Epitope Database (IEDB)

TEST SYSTEM: HLA-A*33:01
EXPERIMENT SUMMARY: IEDB peptide-MHC binding, purified MHC/competitive/radioactivity; bounds were set here for any values at or beyond the usual limits of such assays
RUN CONDITIONS: source organism: Influenza A virus (A/Puerto Rico/8/1934(H1N1))
pIC50: −log10 of the molar value.
MEASUREMENT TYPE: pIC50

| RESIDUE STRING | TEST SYSTEM | MEASUREMENT TYPE | VALUE MEASURED |
| --- | --- | --- | --- |
| RVLSFIKGTK | HLA-A*33:01 | pIC50 | 5.88 |

---

Each record here notes measured pIC50.
TEST SYSTEM: HLA-A*31:01
EXPERIMENT SUMMARY: IEDB peptide-MHC binding, purified MHC/competitive/radioactivity; bounds were set here for any values at or beyond the usual limits of such assays
RUN CONDITIONS: source organism: Influenza A virus (A/Puerto Rico/8/1934(H1N1))
pIC50: −log10 of the molar value.

| RESIDUE STRING | pIC50 |
| --- | --- |
| RTLDFHDSNVK | 5.82 |
| SIIPSGPLK | 5.37 |
| RVLSFIKGTK | 6.48 |
| TMVMELVRMIK | 5.89 |
| GIAPLQLGK | 6.55 |

---

TEST SYSTEM: HLA-A*03:01
EXPERIMENT SUMMARY: IEDB peptide-MHC binding, purified MHC/competitive/radioactivity; bounds were set here for any values at or beyond the usual limits of such assays
RUN CONDITIONS: source organism: Influenza A virus (A/Puerto Rico/8/1934(H1N1))
pIC50: −log10 of the molar value.

| RESIDUE STRING | pIC50 |
| --- | --- |
| TMVMELVRMIK | 6.91 |
| SIIPSGPLK | 7.85 |
| GIAPLQLGK | 7.74 |
| RTLDFHDSNVK | 6.85 |
| RVLSFIKGTK | 7.86 |

---

TEST SYSTEM: HLA-B*07:02
EXPERIMENT SUMMARY: IEDB peptide-MHC binding, purified MHC/competitive/radioactivity; bounds were set here for any values at or beyond the usual limits of such assays
RUN CONDITIONS: source organism: Influenza A virus (A/Puerto Rico/8/1934(H1N1))
MEASUREMENT TYPE: IC50 (nM)

| RESIDUE STRING | TEST SYSTEM | MEASUREMENT TYPE | VALUE MEASURED |
| --- | --- | --- | --- |
| TPLGAINSSL | HLA-B*07:02 | IC50 | 34.9 |
| NPRMFLAMI | HLA-B*07:02 | IC50 | 10.1 |
| SPYNSRFESV | HLA-B*07:02 | IC50 | 41.4 |
| SPGMMMGMF | HLA-B*07:02 | IC50 | 137 |
| LPSLPGHTA | HLA-B*07:02 | IC50 | 41 |
| CPKYVRSAKL | HLA-B*07:02 | IC50 | 344 |
| YPKLKNSYV | HLA-B*07:02 | IC50 | 176 |
| LPACVYGPAV | HLA-B*07:02 | IC50 | 220 |
| GPALSINEL | HLA-B*07:02 | IC50 | 119 |
| GPPCSQRSKF | HLA-B*07:02 | IC50 | 270 |
| VPASRYLTDM | HLA-B*07:02 | IC50 | 13.6 |
| FPNEVGARIL | HLA-B*07:02 | IC50 | 365 |
| IPKQKVAGPL | HLA-B*07:02 | IC50 | 42.4 |
| SPKGVEESSI | HLA-B*07:02 | IC50 | 215 |
| GPVHFRNQV | HLA-B*07:02 | IC50 | 71.4 |
| APPKQSRMQF | HLA-B*07:02 | IC50 | 24 |
| NPALRMKWM | HLA-B*07:02 | IC50 | 59.5 |
| RPWVSFDQNL | HLA-B*07:02 | IC50 | 397 |
| APSPYNSRF | HLA-B*07:02 | IC50 | 19.2 |
| LPRRSGAAGA | HLA-B*07:02 | IC50 | 76.3 |
| RPCFWVELI | HLA-B*07:02 | IC50 | 67.1 |
| GPDNGAVAVL | HLA-B*07:02 | IC50 | 498 |
| FPSSSYRRPV | HLA-B*07:02 | IC50 | 20.9 |
| LPVRSWSYIV | HLA-B*07:02 | IC50 | 207 |
